Just for reference, the nanobody polyreactivity screen of Harvey et al. (2022) is where these values come from.

Procedure summary: yeast display, Sf9 membrane polyspecificity reagent, FACS + sequencing; frameworks hold sequencing errors
Measurement name: polyreactivity (PSR sort gate)

QVQLVESGGGLVQAGGSLRLSCAASGRIFPGNTMGWYRQAPGKERELVAAITRGGSTSYADSVKGRFTISRDNAKNTVYLQMNSLKPEDTAVYYCATRTHGEGTRRDSWGQGTQVTVSS	low polyreactivity
QVQLVESGGGLVQARGSLRLSCAASVGILNWYALGWYRLAPVKEWELVAAISWSGGSTYYADSVKGRFTISRDNAKNTVYLHFNSLKPEVTAVYYCAAHSRGRFSRTYGYWGDGTQVTVSS	high polyreactivity
QVQLVESGGGLVQAGGSLRLSCAASGRTFWFYTMGWYRQAPGKERELVAAISSGGSTNYADSVKGRFTISRDNAKNTVYLQMNSLKPEDTAVYYCNARFPVGPSEDAVWYYPKYDYWGQGTQVTVSS	low polyreactivity
QVQLVESGGGLVQAGGSLRLSCADSGSIFGINTMGWYRQAPGKERELVAAITFGGGSTYYADSVKGRFTISRDNAKNTVYLQMNSLKPEDTAVYYCNRLGVYWVGTEFDYWGQGTQVTVSS	low polyreactivity

[in] Need polyreactivity (PSR sort gate) of QVQLVESGGGLDQAGGSLRLSCAASGSTFVLNAMGWYRQAPGKERDLVAAITSNGGRTYYADSVKGRFTISRDNAKNTVYLQMNSLKPEDTAVYYCNAVKTHRVRVHGWDYGYWGQGTQVTVSS , thanks.
[out] high polyreactivity

[in] Consider the sequence QFQLVESGGGLVQAGGSLRLSCAASGVIFEWYTMGWYRQAPGKERELVARISSDGSTTYADSVKGRFTLSRDNAKNTVYFEMNSLKREDTAVYYCAADVSYPGLKYIFDYWGQGTLVTVSS and give its measured polyreactivity (PSR sort gate).
[out] low polyreactivity

[in] What does the record list as polyreactivity (PSR sort gate) for QVQLVESVGGLVQAGGSLRLSCAASGLIFVRYAMGWYRQAPGKERELVATITWSGGTTYADSVKGRFTISRDNAKNTVYLQMNSLKPEDTAVYYCAVEWPAWTDSDYPVGGHAFGYWGQGTQVTVSS ?
[out] low polyreactivity

[in] Which polyreactivity (PSR sort gate) is listed for QVQLVESGGGLVQAGGSLRLSCAASGRTFFVNAMGWYRQAPGKERELVAVISTSGGSTSYADSVKGRFTISRDNPKYTVYFQMNSLKPEDTAVYYCAALVLGPYVSSFVYQQDDSWGLGTQVTVSS ?
[out] high polyreactivity

[in] Recorded polyreactivity (PSR sort gate) of QVQLVESGGGLVQAGGSLRLSCAASGLTFTGYAMGWYRQAPGKERELVAAISSRGGSTYYADSVKGRFTISRDTAKNTVYLQMNRLKPEDTAVYYCNAVVVVGRRDYWGQGTQVTVSS , please.
[out] high polyreactivity

[in] Value lookup for polyreactivity (PSR sort gate); key = QVQLVESGGGLVQAGGSLRLSCAASGRTFGSYAMGCYRPAPVKEREVVAGITWRDGSTYYADSVKGRFTISRDNAKNTDYLQMNSLKPEDTAVYYCAKEAVRYYLFGMEYWGQGTQVTVSS
[out] low polyreactivity

[in] Requested read-out: polyreactivity (PSR sort gate). Entry: QVQLVESGGGLVQAGGSLRLSCAASGRIFYANAMGWYRQAPGKERELVAAISQSGGSTFYADSVKGRFTISRDNAKNTVYLQMNSLKPEDTAVYYCATEYYGPVYDLDYDYWGQGTQVTVSS
[out] low polyreactivity
